Data provenance is PubChem BioAssay (NCI).

Test system: CAKI-1 renal
Assay: NCI tumour cell line growth inhibition, 48 h; in the data active means GI50 below about 0.43 µM; inactive means the rest
Lab note: assign the record to one of True for active, False for inactive

• N#CCCN1C/C(=C/c2ccc(Cl)cc2)C(=O)/C(=C/c2ccc(Cl)cc2)C1 = False
• Oc1c(I)cc(I)c2cccnc12 = False

Exercise: State the result this test recorded for CC1OC(OC2C(O)CC(OC3C(O)CC(OC4CCC5(C)C(CCC6C5CC(O)C5(C)C(C7=CC(=O)OC7)CCC65O)C4)OC3C)OC2C)CC(O)C1O (centres undefined) .
Key: True

Exercise: State the result this test recorded for O=C(Nc1cccc(-n2cc(-c3ccncc3)c(-c3cc(O)cc(Cl)c3)n2)c1)c1cc(C(F)(F)F)cc(C(F)(F)F)c1 .
Key: False

----------
Test system: SF-295 CNS
Assay: NCI tumour cell line growth inhibition, 48 h
recordedMetric: TGI (µM)
Kindly answer with a numeric value in µM, unit omitted.

• Cc1ccc(-c2nc([P+](c3ccccc3)(c3ccccc3)c3ccccc3)c(S(=O)(=O)c3ccc(C)cc3)o2)cc1 = 10.7

Okay, now this compound:
Exercise: Identify TGI associated with the compound O=[N+]([O-])c1ccc(C(=S)Nc2ccccc2)o1
Key: 15.5

----------
Tested on: MOLT-4 leukemia
Assay: NCI tumour cell line growth inhibition, 48 h
recordedMetric: TGI (µM)
Kindly answer with a numeric value in µM, unit omitted.

• Oc1[nH]c2ccccc2c1N=NC(=S)Nc1ccccc1Cl = 4.95
• Cc1cc(C)nc(SC2=C(Nc3cc(Cl)ccc3O)C(=O)N(Cc3ccccc3)C2=O)n1 = 31.4

Okay, now this compound:
Exercise: Identify TGI associated with the compound CC(C)(O)CNc1nc(Nc2ccnc(C(F)(F)F)c2)nc(-c2cccc(C(F)(F)F)n2)n1
Key: 41.8

----------
System: U251 CNS
Assay: NCI tumour cell line growth inhibition, 48 h
recordedMetric: TGI (µM)
Kindly answer with a numeric value in µM, unit omitted.

Field: example entries. Status: answers known.
* COC1C(O)C(CO)OC(OC2C(O)COC(OC3C(C)OC(OC4C(O[C@H]5CC[C@@]6(C)C(CC=C7[C@H]6CCC68C(=O)O[C@@](C)(CCCC(C)C)[C@H]6[C@@H](OC(C)=O)C[C@@]78C)C5(C)C)OCC(OS(=O)(=O)O)C4O)C(OC4OCC(O)C(O)C4O)C3O)C2O)C1O (some centres undefined) | 0.272
* Cc1cccc2c3c(sc12)C(c1ccc(Cl)cc1)C(C#N)=C(N)O3 (centres undefined) | 11
* O=C(c1cccs1)N(C(=S)OCCOc1ccccc1)c1ccccc1 | 48.8

Okay, now this compound:
Exercise: Identify TGI associated with the compound CCCCCCCCCCCCC(Br)C(=O)NCC(N)=O (centres undefined)
Key: 24.6

----------
Tested on: SNB-75 CNS
Experiment: NCI tumour cell line growth inhibition, 48 h
recordedMetric: GI50

Field: example entries. Status: answers known.
- CC(=O)NCc1cccc(C#Cc2cncnc2Nc2ccc(OCc3cccc(F)c3)c(Cl)c2)c1: > 21000 nM
- COc1cc2nc(-c3cc(F)ccc3O)nc(N[C@@H]3CNC[C@H]3C(C)(C)O)c2cc1OC: 420 nM
- CCCCCO/N=C\c1c2c(O)c3c(O)c(C)c4c(c3c1O)C(=O)C(C)(O/C=C\C(OC)C(C)C(OC(C)=O)C(C)C(O)C(C)C(O)C(C)/C=C\C=C(\C)C(=O)N2)O4 (stereo unspecified): 1460 nM
- C[CH2][Sn]([CH2]C)([O]C(=O)c1ccccc1OC)[O][Sn]([CH2]C)([CH2]C)[O]C(=O)c1ccccc1OC: > 100000 nM
- Cc1ccc(-c2nc([P+](c3ccccc3)(c3ccccc3)c3ccccc3)c(S(=O)(=O)c3ccc(C)cc3)o2)cc1: 1210 nM
- CC(C)(O)CNc1nc(Nc2ccnc(C(F)(F)F)c2)nc(-c2cccc(C(F)(F)F)n2)n1: 15900 nM
- Cc1cc(C#Cc2ccc(C(C)(C)C)cc2)ccc1-n1c(/C=C/c2ccc(O)cc2O)nc2ccccc2c1=O: 1870 nM
- CCN(CC)CCCCCCNc1cc(OC)cc2cccnc12: 13800 nM

Exercise: Identify GI50 associated with the molecule Cc1cc(N=Nc2ccccc2C)ccc1N
Key: 4100 nM

Exercise: Identify GI50 associated with the molecule CC1=C(CC(=O)c2cccc([N+](=O)[O-])c2)C(=O)c2ccccc2C1=O
Key: 2220 nM

Exercise: Identify GI50 associated with the molecule CCCCCCNC(=O)Oc1ccc(/C(=C(\C)c2ccc(Cl)cc2)c2ccc(OCCN3CCCCC3)cc2)cc1
Key: 5590 nM

Exercise: Identify GI50 associated with the molecule O=C(CCCCCCN1CC(=O)N2[C@@H](c3ccc(Cl)c(Cl)c3)c3[nH]c4ccccc4c3C[C@H]2C1=O)NO
Key: 832 nM

----------
System: OVCAR-3 ovarian
Assay: NCI tumour cell line growth inhibition, 48 h
Where a SMILES comes first, the peptide text is derived from it. The star is where a group is joined. Palmitoyl = CCCCCCCCCCCCCCCC(=O)*
This listing pairs compounds with measured GI50.

Field: example entries. Status: answers known.
* CC1(C)CC(=O)C2=C(C1)OC(N)=C(c1nc(-c3ccccc3)cs1)C2c1ccc(Br)cc1 (stereo not given) | 59.7 µg/mL
* COC(=O)c1cncc(/C=C/c2c(C)cc(O)cc2C)c1 | 10.1 µM
* COC1C(O)C(CO)OC(OC2C(O)COC(OC3C(C)OC(OC4C(O[C@H]5CC[C@@]6(C)C(CC=C7[C@H]6CCC68C(=O)O[C@@](C)(CCCC(C)C)[C@H]6[C@@H](OC(C)=O)C[C@@]78C)C5(C)C)OCC(OS(=O)(=O)O)C4O)C(OC4OCC(O)C(O)C4O)C3O)C2O)C1O (stereo not given in full) | 0.181 µM
* O=[N+]([O-])c1ccc(N2CCOCC2)c2c1no[n+]2[O-] | 1.4 µM
* C[C@]12CC[C@@H]3c4cc(OC(F)F)c(OS(N)(=O)=O)cc4CC[C@H]3[C@@H]1CC[C@@H]2O | 0.39 µM
* COC1=C(OC)C(=O)C(SC/C=C(\C)CCCC(C)CCCC(C)CCCC(C)C)=CC1=O (stereo not given) | 0.857 µM
* C=CCN1CC(=O)N2[C@@H](Cc3ccc(O)cc3F)C(=O)N(Cc3cccc(N4CC(N5CCN(CC)CC5)C4)n3)C[C@@H]2N1C(=O)NCc1ccccc1 | 0.0328 µM
* Cc1cc(C)nc(SC2=C(Nc3cc(Cl)ccc3O)C(=O)N(Cc3ccccc3)C2=O)n1 | 18.8 µM
* CC1=C(CC(=O)c2cccc([N+](=O)[O-])c2)C(=O)c2ccccc2C1=O | 2.82 µM
* Nc1nc(Nc2ccccc2SSc2ccccc2Nc2nc(N)nc(C(Cl)(Cl)Cl)n2)nc(C(Cl)(Cl)Cl)n1 | 10.4 µM

Exercise: Identify GI50 associated with the compound Oc1c(I)cc(I)c2cccnc12
Key: 2.42 µM

Exercise: Identify GI50 associated with the compound COc1cc(/C=C/C(=O)c2cccc(-n3cc(-c4ccc(Cl)cc4)[nH]c3=O)c2)cc(OC)c1OC
Key: 2.48 µM

Exercise: Identify GI50 associated with the compound CCCCCCCCCCCCCCCC(=O)N1CCCC1C(=O)NCC(=O)NC(Cc1ccccc1)C(=O)NC(C)C(=O)NC(CO)C(=O)NC(Cc1ccc(O)cc1)C(=O)NC(CCCCN)C(=O)NC(CC(C)C)C(=O)NC(CCCN=C(N)N)C(=O)N1CCCC1C(=O)NCC(N)=O (stereo not given) (Palmitoyl-PGFASYKLRPG-NH2; configuration not given here)
Key: 24.2 µM

Exercise: Identify GI50 associated with the compound CCN(CC)CCCCCCNc1cc(OC)cc2cccnc12
Key: 1.74 µM

Exercise: Identify GI50 associated with the compound COc1ncnc(NS(=O)(=O)c2ccc(N=C3C(=O)N(CN4CCN(c5c(F)cc6c(=O)c(C(=O)O)cn(C7CC7)c6c5OC)CC4C)c4ccc(Br)cc43)cc2)c1OC (stereo not given)
Key: 7.52 µM

----------
System: SK-MEL-2 melanoma
Experiment: NCI tumour cell line growth inhibition, 48 h
recordedMetric: TGI (µM)
Kindly answer with a numeric value in µM, unit omitted.

Exercise: Identify TGI associated with the molecule COc1ccc2c(c1)c1c(n2CCN(C)C)-c2ccccc2CC1
Key: 30.3

----------
System: SW-620 colon
Assay: NCI tumour cell line growth inhibition, 48 h
This listing pairs compounds with measured TGI.

Exercise: Identify TGI associated with the compound CCOC(=O)CNC(=O)C(CSC(=O)N(O)c1ccc(Cl)cc1)NC(=O)CCC(N)C(=O)OCC (stereo not given)
Key: > 50 µM

Exercise: Identify TGI associated with the compound Cc1nc2ccc(C(F)(F)F)cc2nc1NCc1ccc(Cl)c(Cl)c1
Key: 34.7 µM

Exercise: Identify TGI associated with the compound CCOC(=O)/C(C#N)=C(O)/C(=C\c1ccc(Br)cc1)NC(=O)c1ccccc1
Key: 51.7 µM

Exercise: Identify TGI associated with the compound Cc1ccc(NC(=O)CC2C(=O)Nc3ccccc3S2(=O)=O)c(C)c1 (stereo not given)
Key: 19.5 µM

Exercise: Identify TGI associated with the compound COc1ccc(/C=C2\CCC(C)(CN(C)C)C2=O)cc1OC (stereo not given)
Key: > 100 µM

Exercise: Identify TGI associated with the compound Nc1nc(O)c2ncn([C@H]3CC[C@@H](CO)O3)c2n1
Key: > 100 µM

Exercise: Identify TGI associated with the compound COc1ccc(/C(Br)=C2\OC(=O)c3ccccc32)cc1
Key: > 10 µM

Exercise: Identify TGI associated with the compound COc1ccc(-c2cc(C(=O)Nc3ccc(C)c(C)c3)nc(NC#N)n2)cc1
Key: > 100 µM

Exercise: Identify TGI associated with the compound C[C@]12C[C@@H](OC(=O)[C@]1(C)O)[C@@H]([C@]1(O)CC[C@H]3[C@@H]4C[C@H]5O[C@]56C[C@H]5O[C@H]5C(=O)[C@]6(C)[C@H]4CC[C@@]31C)C2
Key: > 50 µM

Exercise: Identify TGI associated with the compound CSC(=S)Nc1cccc(C)n1
Key: > 100 µM
